Reported Activity values for the following compounds.
- protocol: Dissolution of the compound in phosphate buffer at pH 6.8 measured over 12 hrs using solid lipid nanoparticle formulation by dialysis bag diffusion method
- Type: physicochemical
- reported-conditions: artificial membrane, pH 6.8, 12 h

{"structure-smiles": "Cc1ccc([C@@H]2[C@@H](O)[C@H](O)[C@@H](C)N2C)cc1", "Activity, %": 90.1}
{"structure-smiles": "C[C@@H]1[C@@H](O)[C@H](O)[C@@H](c2ccccc2)N1C", "Activity, %": 91.2}
{"structure-smiles": "COc1ccc([C@@H]2[C@@H](O)[C@H](O)[C@@H](C)N2C)cc1OC", "Activity, %": 93.2}
{"structure-smiles": "COCc1ccc([C@@H]2[C@@H](O)[C@H](O)[C@@H](C)N2C)cc1", "Activity, %": 92.1}
{"structure-smiles": "COc1cc([C@@H]2[C@@H](O)[C@H](O)[C@@H](C)N2C)c(F)c(C)c1OC", "Activity, %": 92.2}
{"structure-smiles": "COc1ccc([C@@H]2[C@@H](O)[C@H](O)[C@@H](C)N2C)cc1", "Activity, %": 93.3}
{"structure-smiles": "COc1ccc([C@@H]2[C@@H](O)[C@H](O)[C@@H](C)N2C)c(F)c1", "Activity, %": 90.2}
